The values you see were collected from patent US6277847A.

# Tested on: common chickweed (Stellaria media)
# test name: post-emergence herbicidal activity, chickweed
# Assay type: in vivo
# test context: 1 Kg/Ha, about fourteen days, read-out: post-emergence herbicidal activity (% control) STEME
For each record, write down the corresponding activity at 1000 g/ha.
Use % as the unit, but write only the number.

Query string: Quickly give me recorded activity at 1000 g/ha for `Cn1c(C(F)(F)F)cc(=O)n(-c2ccc(Cl)c3c2CN(CC#N)C3=O)c1=O`
Result string: 100

Query string: Quickly give me recorded activity at 1000 g/ha for `CC(C)N1Cc2c(-n3c(=O)cc(C(F)(F)F)n(N)c3=O)ccc(Cl)c2C1=O`
Result string: 100

Query string: Quickly give me recorded activity at 1000 g/ha for `COc1ccc(CN2Cc3c(-n4c(=O)cc(C(F)(F)F)n(C)c4=O)ccc(Cl)c3C2=O)cc1`
Result string: 80

Query string: Quickly give me recorded activity at 1000 g/ha for `Cn1c(C(F)(F)F)cc(=O)n(-c2ccc(Cl)c3c2CN(Cc2ccc(Cl)cc2)C3=O)c1=O`
Result string: 100

Query string: Quickly give me recorded activity at 1000 g/ha for `Cn1c(C(F)(F)F)cc(=O)n(-c2ccc(Cl)c3c2CN(CC2CC2)C3=O)c1=O`
Result string: 100

Query string: Quickly give me recorded activity at 1000 g/ha for `CC(C)N1Cc2c(-n3c(=O)cc(C(F)(F)F)n(Cc4ccccc4)c3=O)ccc(Cl)c2C1=O`
Result string: 100

Query string: Quickly give me recorded activity at 1000 g/ha for `CC(C)N1Cc2c(-n3nc4n(c3=O)CCCC4)ccc(Cl)c2C1=O`
Result string: 80

Query string: Quickly give me recorded activity at 1000 g/ha for `CC(C)N1Cc2c(ccc(Cl)c2-n2c(=O)cc(C(F)(F)F)n(C)c2=O)C1=O`
Result string: 50

Query string: Quickly give me recorded activity at 1000 g/ha for `CCOC(=O)Cn1c(C(F)(F)F)cc(=O)n(-c2ccc(Cl)c3c2CN(C(C)C)C3=O)c1=O`
Result string: 20

Query string: Quickly give me recorded activity at 1000 g/ha for `CC(C)N1Cc2c(-n3c(=O)cc(C(F)(F)F)n(C)c3=O)ccc(Br)c2C1=O`
Result string: 100

Query string: Quickly give me recorded activity at 1000 g/ha for `CON1Cc2c(-n3c(=O)cc(C(F)(F)F)n(C)c3=O)ccc(Cl)c2C1=O`
Result string: 100

Query string: Quickly give me recorded activity at 1000 g/ha for `CC(C)N1Cc2c(-n3c(=O)cc(C(F)(F)F)n(C)c3=O)ccc(Cl)c2C1=O`
Result string: 100

Query string: Quickly give me recorded activity at 1000 g/ha for `Cn1c(C(F)(F)F)cc(=O)n(-c2ccc(Cl)c3c2CN(CC(F)(F)F)C3=O)c1=O`
Result string: 100

Query string: Quickly give me recorded activity at 1000 g/ha for `C=CCn1c(C(F)(F)F)cc(=O)n(-c2ccc(Cl)c3c2CN(C(C)C)C3=O)c1=O`
Result string: 100

Query string: Quickly give me recorded activity at 1000 g/ha for `COC(=O)CCN1Cc2c(-n3c(=O)cc(C(F)(F)F)n(C)c3=O)ccc(Cl)c2C1=O`
Result string: 100

Query string: Quickly give me recorded activity at 1000 g/ha for `COCN1Cc2c(-n3c(=O)cc(C(F)(F)F)n(C)c3=O)ccc(Cl)c2C1=O`
Result string: 100

----------
# System: wheat (Triticum aestivum var. Lew)
# test name: post-emergence herbicidal activity, wheat
# Type: in vivo
# test context: 1 Kg/Ha, about fourteen days, read-out: post-emergence herbicidal activity (% control) WHT
Think of 50% as a floor: if activity at 1000 g/ha stands on it or above, it is class 1; beneath it, class 0.

Query string: Could you tell me if the measured activity at 1000 g/ha of `CCN1Cc2c(c(Cl)cc(Cl)c2-n2c(=O)cc(C(F)(F)F)n(C)c2=O)C1=O` reaches 50% or more?
Result string: class 1

Query string: Could you tell me if the measured activity at 1000 g/ha of `Cn1c(C(F)(F)F)cc(=O)n(-c2ccc(Cl)c3c2CNC3=O)c1=O` reaches 50% or more?
Result string: class 1

Query string: Could you tell me if the measured activity at 1000 g/ha of `CCCCN1Cc2c(-n3c(=O)cc(C(F)(F)F)n(C)c3=O)ccc(Cl)c2C1=O` reaches 50% or more?
Result string: class 1

Query string: Could you tell me if the measured activity at 1000 g/ha of `CCCn1c(C(F)(F)F)cc(=O)n(-c2ccc(Cl)c3c2CN(C(C)C)C3=O)c1=O` reaches 50% or more?
Result string: class 0

Query string: Could you tell me if the measured activity at 1000 g/ha of `COc1ccc(CN2Cc3c(-n4c(=O)cc(C(F)(F)F)n(C)c4=O)ccc(Cl)c3C2=O)cc1` reaches 50% or more?
Result string: class 0

Query string: Could you tell me if the measured activity at 1000 g/ha of `C#CCn1c(C(F)(F)F)cc(=O)n(-c2ccc(Cl)c3c2CN(C(C)C)C3=O)c1=O` reaches 50% or more?
Result string: class 1

Query string: Could you tell me if the measured activity at 1000 g/ha of `CCN1Cc2c(-n3c(=O)cc(C(F)(F)F)n(C)c3=O)ccc(Cl)c2C1=O` reaches 50% or more?
Result string: class 1

----------
# System: field corn (Zea mays var. Pioneer 3732)
# test name: post-emergence herbicidal activity, corn
# Assay type: in vivo
# test context: 1 Kg/Ha, about fourteen days, read-out: post-emergence herbicidal activity (% control) CRN
For each record, write down the corresponding activity at 1000 g/ha.
Use % as the unit, but write only the number.

Query string: Quickly give me recorded activity at 1000 g/ha for `Cn1c(C(F)(F)F)cc(=O)n(-c2ccc(Cl)c3c2CNC3=O)c1=O`
Result string: 70

Query string: Quickly give me recorded activity at 1000 g/ha for `CC(C)N1Cc2c(c(Cl)cc(Cl)c2N2C(=O)C3=C(CCCC3)C2=O)C1=O`
Result string: 65

Query string: Quickly give me recorded activity at 1000 g/ha for `CCOC(=O)Cn1c(C(F)(F)F)cc(=O)n(-c2ccc(Cl)c3c2CN(C(C)C)C3=O)c1=O`
Result string: 30

Query string: Quickly give me recorded activity at 1000 g/ha for `CC(C)N1Cc2c(-n3c(=O)cc(C(F)(F)F)n(C)c3=O)ccc(Cl)c2C1=O`
Result string: 100

----------
For each record, write down the corresponding activity at 1000 g/ha.
# Test system: wheat (Triticum aestivum var. Lew)
# test name: pre-emergence herbicidal activity, wheat
# Format: in vivo
# test context: 1 kg/Ha, about fourteen days, read-out: pre-emergence herbicidal activity (% control) WHT
Use % as the unit, but write only the number.

Query string: Please indicate recorded activity at 1000 g/ha of `CCN1Cc2c(-n3c(=O)cc(C(F)(F)F)n(C)c3=O)ccc(Cl)c2C1=O` measured with wheat (Triticum aestivum var. Lew).
Result string: 100

Query string: Please indicate recorded activity at 1000 g/ha of `Cn1c(C(F)(F)F)cc(=O)n(-c2ccc(Cl)c3c2CN(C(C)(C)C)C3=O)c1=O` measured with wheat (Triticum aestivum var. Lew).
Result string: 100

Query string: Please indicate recorded activity at 1000 g/ha of `CON1Cc2c(-n3c(=O)cc(C(F)(F)F)n(C)c3=O)ccc(Cl)c2C1=O` measured with wheat (Triticum aestivum var. Lew).
Result string: 100

Query string: Please indicate recorded activity at 1000 g/ha of `CC(C)N1Cc2c(-n3c(=O)cc(C(F)(F)F)n(C)c3=O)ccc(Br)c2C1=O` measured with wheat (Triticum aestivum var. Lew).
Result string: 100

Query string: Please indicate recorded activity at 1000 g/ha of `Cn1c(C(F)(F)F)cc(=O)n(-c2ccc(Cl)c3c2CN(CC2CC2)C3=O)c1=O` measured with wheat (Triticum aestivum var. Lew).
Result string: 100

Query string: Please indicate recorded activity at 1000 g/ha of `CCOC(=O)CN1Cc2c(-n3c(=O)cc(C(F)(F)F)n(C)c3=O)ccc(Cl)c2C1=O` measured with wheat (Triticum aestivum var. Lew).
Result string: 30

Query string: Please indicate recorded activity at 1000 g/ha of `Cn1c(C(F)(F)F)cc(=O)n(-c2c(Cl)cc(Cl)c3c2CNC3=O)c1=O` measured with wheat (Triticum aestivum var. Lew).
Result string: 95

Query string: Please indicate recorded activity at 1000 g/ha of `Cn1c(C(F)(F)F)cc(=O)n(-c2ccc(Cl)c3c2CN(CCF)C3=O)c1=O` measured with wheat (Triticum aestivum var. Lew).
Result string: 100

Query string: Please indicate recorded activity at 1000 g/ha of `CC(C)N1Cc2c(c(Cl)cc(Cl)c2-n2c(=O)cc(C(F)(F)F)n(C)c2=O)C1=O` measured with wheat (Triticum aestivum var. Lew).
Result string: 100

Query string: Please indicate recorded activity at 1000 g/ha of `CCCN1Cc2c(-n3c(=O)cc(C(F)(F)F)n(C)c3=O)ccc(Cl)c2C1=O` measured with wheat (Triticum aestivum var. Lew).
Result string: 100

Query string: Please indicate recorded activity at 1000 g/ha of `Cn1c(C(F)(F)F)cc(=O)n(-c2ccc(Cl)c3c2CN(Cc2ccc(Cl)cc2)C3=O)c1=O` measured with wheat (Triticum aestivum var. Lew).
Result string: 30

Query string: Please indicate recorded activity at 1000 g/ha of `CC(C)N1Cc2c(-n3c(=O)cc(C(F)(F)F)n(C)c3=O)ccc(Cl)c2C1=O` measured with wheat (Triticum aestivum var. Lew).
Result string: 100

Query string: Please indicate recorded activity at 1000 g/ha of `CCN1Cc2c(c(Cl)cc(Cl)c2-n2c(=O)cc(C(F)(F)F)n(C)c2=O)C1=O` measured with wheat (Triticum aestivum var. Lew).
Result string: 100

Query string: Please indicate recorded activity at 1000 g/ha of `C=CCn1c(C(F)(F)F)cc(=O)n(-c2ccc(Cl)c3c2CN(C(C)C)C3=O)c1=O` measured with wheat (Triticum aestivum var. Lew).
Result string: 80

Query string: Please indicate recorded activity at 1000 g/ha of `Cn1c(C(F)(F)F)cc(=O)n(-c2ccc(Cl)c3c2CN(CC(F)(F)F)C3=O)c1=O` measured with wheat (Triticum aestivum var. Lew).
Result string: 100

Query string: Please indicate recorded activity at 1000 g/ha of `Cn1c(C(F)(F)F)cc(=O)n(-c2ccc(Cl)c3c2CN(O)C3=O)c1=O` measured with wheat (Triticum aestivum var. Lew).
Result string: 60

Query string: Please indicate recorded activity at 1000 g/ha of `Cn1c(C(F)(F)F)cc(=O)n(-c2c(Cl)cc(Cl)c3c2CN(O)C3=O)c1=O` measured with wheat (Triticum aestivum var. Lew).
Result string: 70
